This section presents pKi values reported for Coagulation factor X (Homo sapiens, UniProt P00742) in the literature.
pKi: −log10 of the molar value.
Quantity Measured: pKi

Worked examples follow.
[
  {
    "Compound": "CCOC(=O)C(=O)N(Cc1cc(F)cc(F)c1)c1ccc2c(c1)N(C)CC(C)(COc1ccc(C(=N)N)cc1)O2 (stereo not drawn)",
    "pKi": 5.22
  },
  {
    "Compound": "Cc1cc(C(=O)Nc2ccc(-c3ccccc3CN)cc2F)n(-c2cc3ccccc3cc2F)n1",
    "pKi": 8.62
  },
  {
    "Compound": "CC(C)OC(=O)CS(=O)(=O)NC(CCc1cccc[n+]1[O-])C(=O)NCC(=O)NCc1cc(Cl)ccc1CN (stereo not drawn)",
    "pKi": 9.12
  },
  {
    "Compound": "CCC(=O)Nc1cccc(S(=O)(=O)N[C@@H](Cc2cccc(C(=N)N)c2)C(=O)N2CCC(CCN)CC2)c1",
    "pKi": 4.70
  },
  {
    "Compound": "CC(C)N1CCC(NC(=O)c2cc3cc(Br)ccc3n2Cc2cc(-c3ccc(Cl)s3)on2)CC1",
    "pKi": 8.05
  }
]

1: CN1CC(C)(COc2ccc(C(=N)N)cc2)Oc2ccc(N(Cc3cccc(F)c3)C(=O)C(=O)O)cc21 (stereo not drawn)
2: CCOC(=O)c1cc2ccc(OC3CCN(C(C)=N)CC3)cc2n1Cc1ccc2ccc(C(=N)N)cc2c1
Request: I'm curious whether 1 or 2 has the smaller pKi number. Which is it? In your reply, give the label of the chosen option.
Result: 1
(1: 4.74, 2: 9.22)
